Experiment: hepatitis C replication reporter changes, two-sided – Huh7 cells, luciferase reporter, HCV replication inhibitor project, primary screen (AID 1109);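 note: huh7 hepatoma cells harbouring a luciferase neomycin HCV replicon reporter; luciferase luminescence as measure of HCV replicon replication; test concentration not given here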
Settings: Huh7 HCV replicon luciferase reporter, 48 h; higher = more signal
Where z-score equals or exceeds -1, the correct label is yes (1); where it does not, the label is no (0).

[[record]]
smiles_entry = "CC(C)NC(=O)[C@@H]1c2ccccc2C(=O)N(Cc2cc(C(F)(F)F)cc(C(F)(F)F)c2)[C@H]1c1ccc(CO)cc1"
class_assignment = "yes (1)"

[[record]]
smiles_entry = "C=CCNC(=O)[C@H]1[C@@H]2C(=O)O[C@@H](c3ccccc3)[C@@H](c3ccccc3)N2[C@@H](c2ccc(OCCO)cc2)[C@]12C(=O)N(C(=O)OCCOC)c1ccc(C#CC3=CCCCC3)cc12"
class_assignment = "no (0)"

[[record]]
smiles_entry = "O=C1C[C@@](C(=O)NCc2ccccc2)(c2ccc([N+](=O)[O-])cc2)[C@@H](c2ccc(CO)cc2I)N1C1CCCCC1"
class_assignment = "no (0)"

[[record]]
smiles_entry = "COCC(=C=CC[C@@H](O)c1ccccc1OCCO)C[C@@H](O)COCc1ccccc1"
class_assignment = "yes (1)"

[[record]]
smiles_entry = "COc1ccc(C(=O)Nc2ccc(CN3C(=O)[C@@]4(O[C@@H](CC(=O)N5Cc6ccccc6C[C@H]5CO)[C@H]([Si](C)(C)c5ccc(OC)cc5)[C@H]4C)c4ccccc43)cc2)cc1"
class_assignment = "no (0)"


====

Assay: compound effects on differentiated 3T3-L1 adipocyte viability – cell-based, 3T3-L1 adipocytes, calcein-AM fluorescence, 48 h, basal, profiling panel (AID 1163); note: test concentration not given here
Settings: 3T3-L1 adipocytes viability, higher = more signal
MEASUREMENT_KIND: z-score

[[record]]
compound = "CC(C)C(CO)N1C(=O)[C@@H]2[C@H]3C(=O)OCC=C[C@H]3OC23C=CCN(CCN2CCOCC2)C(=O)[C@@H]13 (some centres not stated)"
measurement_kind = "z-score"
numeric_value = -0.347

[[record]]
compound = "COc1ccc(CCNC(=O)[C@@H]2c3ccccc3C(=O)N(Cc3ccccc3C(F)(F)F)[C@H]2c2ccc(CO)cc2)cc1"
measurement_kind = "z-score"
numeric_value = -0.513

[[record]]
compound = "[N-]=[N+]=Nc1ccccc1[C@H]1OC(c2ccc(OCCCO)cc2)=N[C@@]1(Cc1ccccc1)C(=O)NCc1ccccc1"
measurement_kind = "z-score"
numeric_value = 0.491

[[record]]
compound = "CN1C(=O)C2C=CC(C(O)c3ccc(F)cc3)N(N3CCCCC3)C2C1=O (configuration not stated)"
measurement_kind = "z-score"
numeric_value = -1.24

[[record]]
compound = "COCCOC(=O)N1C(=O)[C@@]2(c3ccccc31)[C@H](c1ccc(OCCO)cc1)N1[C@H](c3ccccc3)[C@H](c3ccccc3)OC(=O)[C@H]1[C@@H]2C(=O)NC[C@H](O)c1ccccc1"
measurement_kind = "z-score"
numeric_value = 0.754

[[record]]
compound = "CC(C)(C)OC(=O)CC[C@]1(C(=O)N2CCCCC2)N=C(c2ccc(OCCCO)cc2)O[C@H]1c1ccccc1CN=[N+]=[N-]"
measurement_kind = "z-score"
numeric_value = 0.876

[[record]]
compound = "C=CCOc1ccc([C@@H]2CC=C(C(=O)OCC)[C@H](c3cccc(Br)c3)N2S(=O)(=O)c2ccc(C)cc2)cc1"
measurement_kind = "z-score"
numeric_value = 0.261

[[record]]
compound = "C=CCC(OC(C)=O)[C@@H]1[C@@H](N(Cc2ccc(-c3ccccc3)cc2)C(=O)Cc2ccc(OC)cc2)c2cc(OCCCO)ccc2N1C(=O)c1ccc(-c2ccccc2)cc1 (some centres not stated)"
measurement_kind = "z-score"
numeric_value = 0.397

[[record]]
compound = "C[C@@]1([C@@H](NC(=O)c2cccs2)c2ccc(-c3ccccc3)cc2)C[C@H]1C1CCCCC1"
measurement_kind = "z-score"
numeric_value = 0.437

[[record]]
compound = "COc1cc2c(cc1OC)CN(C(=O)[C@@H]1[C@H]3C(=O)O[C@H](c4ccccc4)[C@H](c4ccccc4)N3[C@H](c3ccc(O)cc3)[C@@]13C(=O)Nc1ccc(C#CCNC(N)=O)cc13)CC2"
measurement_kind = "z-score"
numeric_value = 0.0878

[[record]]
compound = "Cc1ccc(C(C)CC(O)C2C=CC3C(=O)N(Cc4ccccc4)C(=O)C3N2n2cnnc2)o1 (configuration not stated)"
measurement_kind = "z-score"
numeric_value = -0.126

[[record]]
compound = "CC(C)(C)OC(=O)CC[C@@]1(C(=O)N2CCCCC2)N=C(c2ccc(OCCCO)cc2)O[C@@H]1c1ccccc1N=[N+]=[N-]"
measurement_kind = "z-score"
numeric_value = -0.351

[[record]]
compound = "NC(=O)NCC#Cc1ccc2c(c1)[C@]1(C(=O)N2)[C@H](c2ccc(OCCO)cc2)N2[C@H](c3ccccc3)[C@H](c3ccccc3)OC(=O)[C@H]2[C@@H]1C(=O)N1CCN(c2ncccn2)CC1"
measurement_kind = "z-score"
numeric_value = 0.212

[[record]]
compound = "Cc1ccc(S[C@]2(C(=O)NCc3ccccc3)CC(=O)N(C3Cc4ccccc4C3)[C@@H]2c2ccc(CO)cc2I)cc1"
measurement_kind = "z-score"
numeric_value = -0.196

[[record]]
compound = "CCCC[C@H]1OB(O)C[C@H]2C1=C(COc1ccccc1)Cn1c(=O)n(-c3ccccc3)c(=O)n12"
measurement_kind = "z-score"
numeric_value = 0.75

[[record]]
compound = "CN(C)CCCC[C@@H]1NC(=O)[C@H]2C[C@@H](C(=O)NCCCCCCNC(=O)CS)[C@@H](c3ccc(O)cc3)N2C1=O"
measurement_kind = "z-score"
numeric_value = 0.0215

[[record]]
compound = "N#Cc1ccc(NN2C(C(O)c3ccccc3)C=CC3C(=O)N(c4ccccc4)C(=O)C32)cc1 (configuration not stated)"
measurement_kind = "z-score"
numeric_value = -0.173

[[record]]
compound = "CCCC=C(CCC)[C@@H](NC(=O)Cc1ccccc1)c1ccc(C(=O)OC)cc1"
measurement_kind = "z-score"
numeric_value = -0.735

[[record]]
compound = "CC(C)C[C@@H]1NC(=O)[C@@H]2C[C@H](C(=O)NCc3ccc(F)cc3)[C@H](c3ccc(O)cc3)N2C1=O"
measurement_kind = "z-score"
numeric_value = 0.305

[[record]]
compound = "C[C@]12C(=O)N(CCCO)[C@@H]3C(=O)N(c4ccc(Cl)cc4)CC=CC31O[C@@H]1/C=C\\CCCOC(=O)C12 (some centres not stated)"
measurement_kind = "z-score"
numeric_value = 0.922

[[record]]
compound = "COCCOC(=O)N1C(=O)[C@@]2(c3cc(C#CCCO)ccc31)[C@H](c1ccc(OCCO)cc1)N1[C@H](c3ccccc3)[C@H](c3ccccc3)OC(=O)[C@H]1[C@@H]2C(=O)N1CCc2cc(OC)c(OC)cc2C1"
measurement_kind = "z-score"
numeric_value = 0.586

[[record]]
compound = "C=CCC(OC(C)=O)[C@@H]1[C@@H](N(Cc2ccc(-c3cccc(C(F)(F)F)c3)o2)C(=O)c2cccc3ccccc23)c2cc(OCCCO)ccc2N1C(=O)c1ccc(-c2ccccc2)cc1 (some centres not stated)"
measurement_kind = "z-score"
numeric_value = 0.865

[[record]]
compound = "NC(=O)NCC#Cc1ccc2c(c1)[C@]1(C(=O)N2)[C@H](c2ccc(O)cc2)N2[C@H](c3ccccc3)[C@H](c3ccccc3)OC(=O)[C@H]2[C@@H]1C(=O)NC[C@H](O)c1ccccc1"
measurement_kind = "z-score"
numeric_value = 0.192

[[record]]
compound = "COC(=O)[C@@]1(Cc2ccccc2)[C@H]2c3cc(C(=O)N4CCCC4)n(CCO)c3C[C@H]2CN1C(=O)c1ccccc1"
measurement_kind = "z-score"
numeric_value = 0.577

[[record]]
compound = "COc1ccc([Si](C)(C)[C@@H]2[C@@H](CCO)O[C@]3(C(=O)N(Cc4ccccc4)c4ccc(N5CCCCC5=O)cc43)[C@H]2C)cc1"
measurement_kind = "z-score"
numeric_value = 2.07

[[record]]
compound = "O=C(Nc1cc(Br)ccc1C(=O)NCc1cccc(O)c1)c1ccccc1"
measurement_kind = "z-score"
numeric_value = -0.318

[[record]]
compound = "COC(=O)C(CC#Cc1ccc2c(c1)[C@]1(C(=O)N2)[C@H](C(=O)N2CCc3cc(OC)c(OC)cc3C2)[C@H]2C(=O)O[C@H](c3ccccc3)[C@H](c3ccccc3)N2[C@@H]1c1ccc(O)cc1)C(=O)OC"
measurement_kind = "z-score"
numeric_value = 1.08


====

Assay: JC-1 mitochondrial potential readout, lung cancer cells – cell-based, A549, JC-1 fluorescence, basal, 24 h, 100 nL, profiling panel (AID 1138);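 note: A549 lung adenocarcinoma cells under basal conditions with no added stimulus; test concentration not given here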
Conditions: higher = more signal
Each item that follows carries a reported z-score.
MEASUREMENT_KIND: z-score

[[record]]
compound = "[N-]=[N+]=Nc1ccccc1[C@@H]1OC(c2ccc(OCCCO)cc2)=N[C@]1(CCS(=O)(=O)c1ccccc1)C(=O)NCc1ccccc1"
measurement_kind = "z-score"
numeric_value = 0.27

[[record]]
compound = "COCCOC(=O)N1C(=O)[C@@]2(c3cc(C#CCNC(N)=O)ccc31)[C@H](C(=O)N1CCCCCCC1)[C@H]1C(=O)O[C@H](c3ccccc3)[C@H](c3ccccc3)N1[C@@H]2c1ccc(OCCO)cc1"
measurement_kind = "z-score"
numeric_value = -1.6

[[record]]
compound = "NC(=O)NCC#Cc1ccc2c(c1)[C@]1(C(=O)N2)[C@H](c2ccc(OCCO)cc2)N2[C@H](c3ccccc3)[C@H](c3ccccc3)OC(=O)[C@H]2[C@@H]1C(=O)N1CCN(c2ncccn2)CC1"
measurement_kind = "z-score"
numeric_value = -1.1

[[record]]
compound = "CC(C)[Si](C#C[Si](C(C)C)(C(C)C)C(C)C)(O[C@H](C)c1cn(Cc2cccc(Cl)c2)nn1)C(C)C"
measurement_kind = "z-score"
numeric_value = 2.01

[[record]]
compound = "COC(=O)[C@@]1(Cc2ccc(OC)cc2)[C@H]2c3cc(C(=O)N(C)C)n(Cc4cc(C)n(C)n4)c3C[C@H]2CN1C(=O)c1ccccc1"
measurement_kind = "z-score"
numeric_value = -1.14

[[record]]
compound = "COCC(=C=CC[C@@H](O)c1ccccc1OCCO)C[C@@H](O)COCc1ccccc1"
measurement_kind = "z-score"
numeric_value = 1.8

[[record]]
compound = "[N-]=[N+]=NCc1ccccc1[C@H]1OC(c2ccc(OCCCO)cc2)=N[C@@]1(Cc1ccccc1N=[N+]=[N-])C(=O)NCCN1CCOCC1"
measurement_kind = "z-score"
numeric_value = 1.57

[[record]]
compound = "C=CC[C@@]1(C(=O)NCC(O)CO)N=C(c2ccc(OCCCO)cc2)O[C@@H]1c1ccccc1 (stereo partly drawn)"
measurement_kind = "z-score"
numeric_value = 1.01

[[record]]
compound = "COCCCNC(=O)[C@@H]1c2ccccc2C(=O)N(c2ccc(C)cn2)[C@H]1c1ccc(CO)cc1"
measurement_kind = "z-score"
numeric_value = -0.758

[[record]]
compound = "COc1ccc(C(=O)Nc2ccc(CN3C(=O)[C@]4(O[C@H](CCn5cc([C@H](O)c6ccccc6)nn5)[C@@H]([Si](C)(C)c5ccc(OC)cc5)[C@@H]4C)c4ccccc43)cc2)cc1"
measurement_kind = "z-score"
numeric_value = 0.496

[[record]]
compound = "O=C1N(CCS(=O)(=O)c2ccccc2)c2ccccc2[C@H]2OC(c3ccc(OCCCO)cc3)=N[C@@]12CCS(=O)(=O)c1ccccc1"
measurement_kind = "z-score"
numeric_value = -1.23

[[record]]
compound = "CN(C)CCCN1C(=O)[C@@]2(Cc3ccccc31)c1ccccc1C(=O)N(Cc1ccccc1)[C@H]2c1ccc(CO)cc1"
measurement_kind = "z-score"
numeric_value = -0.548

[[record]]
compound = "COc1cc2c(cc1OC)CN(C(=O)[C@@H]1[C@H]3C(=O)O[C@H](c4ccccc4)[C@H](c4ccccc4)N3[C@H](c3ccc(OCCO)cc3)[C@@]13C(=O)Nc1ccc(C#CCCO)cc13)CC2"
measurement_kind = "z-score"
numeric_value = -1.37


src = PubChem BioAssay
